Origin of values: patent US5792780A

# System: Candida albicans TA
# test protocol: protective effect against experimental infection in mice (survival rate 7 days after infection)
# Assay type: in vivo, Crj:CDF1 mice
# condition: po, 168 h, Table 7, P.O. once immediately after infection, 0.2% CMC, survival 7 days after infection
quantity measured: ED50 (mg/kg)
One number for each entry, in mg/kg.

molecule	data value
C[C@@H](N1CC(=O)N(c2ccc(F)cc2F)C1=O)[C@](O)(Cn1cncn1)c1ccc(F)cc1F [Compound 3]	2
C[C@@H](N1CCN(c2ccc(OCC(F)(F)F)cc2)C1=O)[C@](O)(Cn1cncn1)c1ccc(F)cc1F [Compound 9]	0.65
C[C@@H](N1CCN(c2ccc(OC(F)(F)F)cc2)C1=O)[C@](O)(Cn1cncn1)c1ccc(F)cc1F [Compound 1]	1.4

Please give ED50, item by item, for the list that follows.
1. C[C@@H](N1CCN(c2ccc(OC(F)(F)C(F)F)cc2)C1=O)[C@](O)(Cn1cncn1)c1ccc(F)cc1F [Compound 7]
2. C[C@@H](N1CCN(c2ccc(OCC(F)(F)C(F)(F)F)cc2)C1=O)[C@](O)(Cn1cncn1)c1ccc(F)cc1F [Compound 8]
3. C[C@@H](N1CCN(c2ccc(C(F)(F)F)cc2)C1=O)[C@](O)(Cn1cncn1)c1ccc(F)cc1F [Compound 4]
4. C[C@@H](N1CCN(c2ccc(Cl)cc2)C1=O)[C@](O)(Cn1cncn1)c1ccc(F)cc1F [Compound 10]

Output line:
[0.65, 2, 0.65, 1.8]
